# Test system: TNFα
# Assay: Cot Monocyte TNFα Cell Based Assay
# Condition Summary: Homo sapiens, Monocyte, read-out: EC50 TNF, LPS-stimulated human monocytes, TNFα
Could you please report measured EC50 for the items listed next?
Please reply with the bare figure in nM and do not write the unit itself.

Lookup: Consider the compound `Cn1ccc2c([C@H](Nc3cc(Cl)c4ncc(C#N)c(NCC(C)(C)C)c4c3)c3cn(C45CC(C4)C5)nn3)cccc21` tested on TNFα; state its EC50.
Found: 478

Lookup: Supply EC50 measured with TNFα for `Cc1nc(F)ccc1[C@H](Nc1cc(Cl)c2ncc(C#N)c(N[C@H]3CCOCC3(C)C)c2c1)c1cn(C2(C(F)F)CC2)nn1` .
Found: 760

Lookup: Write down the reported EC50 (system: TNFα) of `[2H][C@](Nc1cc(Cl)c2ncc(C#N)c(Nc3cccc(Cl)c3OC)c2c1)(c1ccc(F)nc1)c1cn(C2CC2)nn1`
Found: 130

Lookup: Give the observed EC50 of `N#Cc1cnc2c(Cl)cc(N[C@H](c3c[nH]nn3)c3ccc(F)nc3F)cc2c1Nc1cnc(F)c(F)c1` for TNFα.
Found: 1670

Lookup: Specify EC50 for `[2H][C@](Nc1cc(C#N)c2ncc(C#N)c(N[C@H](CC)c3ccccc3)c2c1)(c1ccc(F)nc1)c1cn(C2CC2)nn1` , system TNFα.
Found: 94

Lookup: Find the measured EC50 of `Cc1nc(F)ccc1[C@H](Nc1cc(Cl)c2ncc(C#N)c(NCC(C)(C)C)c2c1)c1cn(C2(CO)CC2)nn1` with TNFα as test system.
Found: 86

Lookup: State, for TNFα, measured EC50 of the compound listed here: `Cc1n[nH]c2cccc([C@H](Nc3cc(C#N)c4ncc(C#N)c(NCC(C)(C)C)c4c3)c3cn(C4(C(F)(F)F)CC4)nn3)c12`
Found: 60

Lookup: Provide EC50, recorded with TNFα, of `CC(C)(C)CNc1c(C#N)cnc2c(Cl)cc(N[C@@H](c3ccc(Cl)nc3)c3cn(C4(C(F)(F)F)CC4)nn3)cc12`
Found: 782

Lookup: Give TNFα EC50 for the following compound: `[2H][C@](Nc1cc(Cl)c2ncc(C#N)c(Nc3ccc(OC)c(Cl)c3)c2c1)(c1ccc(F)nc1)c1cn(C2CC2)nn1`
Found: 173

Lookup: Enter EC50 (test system TNFα) for `CC[C@@H](Nc1c(C#N)cnc2c(Cl)cc(N[C@@H](c3cccnc3)c3cn(C4CCCC4)nn3)cc12)c1ccccc1`
Found: 103

Lookup: Report EC50 under test system TNFα for `CC(C)(C)CNc1c(C#N)cnc2c(Cl)cc(N[C@@H](c3cccnc3)c3cn(C4(C(F)F)CC4)nn3)cc12` .
Found: 528

Lookup: Param request: EC50 | system TNFα | item `[2H]C([2H])([2H])C([2H])([2H])[C@@H](Nc1c(C#N)cnc2c(Cl)cc(N[C@@]([2H])(c3ccc(F)nc3)c3cn(C4CC4)nn3)cc12)c1ccccc1`
Found: 76

Lookup: Please look at `CC(C)(C)CNc1c(C#N)cnc2c(Cl)cc(N[C@@H](c3cccnc3)c3c[nH]nn3)cc12` and tell me its recorded EC50 on TNFα.
Found: 506

Lookup: State recorded EC50 with TNFα, entry `Cc1nc(F)ccc1[C@H](Nc1cc(C#N)c2ncc(C#N)c(NCC(C)(C)C)c2c1)c1cn(C2(C)CC2)nn1` , no comment.
Found: 21

Lookup: Report the value of EC50 obtained on TNFα for `Cc1ccc([C@H](Nc2cc(Cl)c3ncc(C#N)c(NCC(C)(C)C)c3c2)c2cn(C3(C(F)(F)F)CC3)nn2)c(C)n1` .
Found: 178
